- System: actin-based motility in dendritic spines
- PROCEDURE_DETAILS: video time-lapse recording of dendritic spine motility (shape factor) in GFP-actin transfected hippocampal neurons, volatile anaesthetics
- Assay type: cell-based, rat
- STUDY_CONDITIONS: calculated from concentration of saturated solution at 25° C. used as stock solution
Provide the recorded Effective conc. for spine motility for the entries that follow.
One number for each entry, in mM.

FC(F)OC(F)(F)C(F)Cl (centres unmarked) [Enflurane] = 0.30
FC(F)(F)C(Cl)Br (centres unmarked) [Halothane] = 0.23
FC(F)OC(Cl)C(F)(F)F (centres unmarked) [Isoflurane] = 0.30
ClC(Cl)Cl [Chloroform] = 1.33

Now turn to the next compound.
Query block: Bench note: what Effective conc. for spine motility did CCOCC [Diethylether, diethylether] show?
Result block: 20.4
